Where these numbers come from: PubChem BioAssay AID1851

Target: Cytochrome P450 2C19 (Homo sapiens) (UniProt P33261)
Sequence (P33261 whole entry, looked up): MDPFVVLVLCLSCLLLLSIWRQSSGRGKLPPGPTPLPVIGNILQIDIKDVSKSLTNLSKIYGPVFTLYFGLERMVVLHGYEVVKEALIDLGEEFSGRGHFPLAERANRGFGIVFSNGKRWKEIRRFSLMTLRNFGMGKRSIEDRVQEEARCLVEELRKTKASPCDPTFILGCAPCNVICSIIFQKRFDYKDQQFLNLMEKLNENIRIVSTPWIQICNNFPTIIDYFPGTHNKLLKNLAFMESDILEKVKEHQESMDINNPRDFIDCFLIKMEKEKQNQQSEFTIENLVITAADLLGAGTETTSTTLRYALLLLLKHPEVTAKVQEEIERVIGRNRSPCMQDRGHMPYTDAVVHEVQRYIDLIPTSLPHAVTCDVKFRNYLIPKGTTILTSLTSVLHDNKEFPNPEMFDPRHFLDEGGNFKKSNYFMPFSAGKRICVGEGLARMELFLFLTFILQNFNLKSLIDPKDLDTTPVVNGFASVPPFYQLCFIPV
Assay: Cytochrome panel assay with activity outcomes
Conditions: recombinant CYP, pro-luciferin dealkylation, luminescence, p450-cyp2c19; series mostly up to 57.1 µM
In all, about 16,000 compounds went through this assay and about 5,800 (36%) were called active. Inconclusive results (about 23%) are left out. The call rests on the fitted dose curve; in most records, active means well fitted curve in the direction sought with a large enough effect; inconclusive means small, poorly fitted or top-dose-only effect, or effect the other way; inactive means no such curve, though single readings can be large or run the other way. The list shows a part of the results.
Possible outcomes: True for active, False for inactive

>>> df
                                   molecule  answerlabel
0         CC12CN3CC(C)(CN(C1)C31CCSCC1)C2=O        False
1  C=C(CC1(C(C)NP(=O)(c2ccccc2)c2ccccc2)CC1)c1ccccc1 (stereo not given)         True
2  N#Cc1ccc(CN2CCCC3(CCN(C(=O)Oc4ccccc4)CC3)C2)cc1        False
3  O=C(O)[C@H]1C[C@@H]1[C@H](NP(=O)(c1ccccc1)c1ccccc1)c1ccccc1        False
4  CN1[C@@H]2CC[C@H]1CC(OC(=O)c1cc(Cl)cc(Cl)c1)C2 (stereo not given in full)        False

###

Target: Cytochrome P450 2C19 (Homo sapiens) (UniProt P33261)
Test: Cytochrome panel assay with activity outcomes
Settings: recombinant CYP, pro-luciferin dealkylation, luminescence, p450-cyp2c19; series mostly up to 57.1 µM
Hit rate of the full screen: of about 16,000 compounds, about 5,800 (36%) were called active. About 23% were inconclusive and are not listed. Calls come from the whole dose curve; as a rule, active = well fitted curve in the direction sought with a large enough effect; inconclusive = small, poorly fitted or top-dose-only effect, or effect the other way; inactive = no such curve, though single readings can be large or run the other way. Some of the results follow.
Possible outcomes: active, inactive

compound	targetSystem	answerLabel
C[C@]12N[C@@H](Cc3ccccc31)c1ccccc12	Cytochrome P450 2C19 (Homo sapiens) (UniProt P33261)	inactive
Nc1ncnc2c1ncn2[C@@H]1O[C@@H](COP(=O)(O)CP(=O)(O)OP(=O)(O)O)[C@H](O)[C@@H]1O	Cytochrome P450 2C19 (Homo sapiens) (UniProt P33261)	inactive
O[Si@](CCCN1CCCCC1)(c1ccc(F)cc1)C1CCCCC1	Cytochrome P450 2C19 (Homo sapiens) (UniProt P33261)	inactive
COc1ccn(C)c(=O)c1C#N	Cytochrome P450 2C19 (Homo sapiens) (UniProt P33261)	inactive
COC(=O)N1CCC2(CCN(CC(C)C)CC2)CC1	Cytochrome P450 2C19 (Homo sapiens) (UniProt P33261)	inactive
O=C(O)CC[N+](=O)[O-]	Cytochrome P450 2C19 (Homo sapiens) (UniProt P33261)	inactive
CC[C@H](C)C(=O)O[C@@H]1[C@H](O)[C@@H]2[C@H](CN3C[C@@H](C)CC[C@@H]3[C@@]2(C)O)[C@@H]2C[C@@]34O[C@@]5(O)[C@@H](OC(=O)[C@](C)(O)CC)CC[C@@]3(C)[C@H]5[C@H](OC(C)=O)[C@@H](OC(C)=O)[C@H]4[C@]12O	Cytochrome P450 2C19 (Homo sapiens) (UniProt P33261)	inactive
c1cnc(N2CCC3(CCNCC3)CC2)nc1	Cytochrome P450 2C19 (Homo sapiens) (UniProt P33261)	inactive
O=C(O)Cc1cnc[nH]1	Cytochrome P450 2C19 (Homo sapiens) (UniProt P33261)	inactive
CN1CCC2(CC1)CCN(C(=O)Oc1ccccc1)CC2	Cytochrome P450 2C19 (Homo sapiens) (UniProt P33261)	inactive
CN1[C@@H]2CC[C@H]1CC(O)C2 (stereo partly specified)	Cytochrome P450 2C19 (Homo sapiens) (UniProt P33261)	inactive
COC(=O)C1(C)C=C2C(=C(C)C(=O)C2C)CN1 (stereo unspecified)	Cytochrome P450 2C19 (Homo sapiens) (UniProt P33261)	inactive
CO[C@@H]1CC=C2CCN3CCC4=C(CC(=O)OC4)[C@]23C1	Cytochrome P450 2C19 (Homo sapiens) (UniProt P33261)	inactive
COC[C@H]1OC(=O)c2coc3c2[C@@]1(C)C1=C(C3=O)[C@H]2CCC(=O)[C@@]2(C)C[C@H]1OC(C)=O	Cytochrome P450 2C19 (Homo sapiens) (UniProt P33261)	inactive
CCN1C[C@]2(C)CC[C@H](O)[C@@]34[C@@H]5CC6[C@@H](OC)C[C@@](O)([C@@H]5[C@@H]6O)[C@H](C[C@@H]23)[C@H]14	Cytochrome P450 2C19 (Homo sapiens) (UniProt P33261)	inactive
CNC(C)(C)Cc1ccccc1	Cytochrome P450 2C19 (Homo sapiens) (UniProt P33261)	inactive
Cc1nnc2ccc(-c3cccc(C(F)(F)F)c3)nn12	Cytochrome P450 2C19 (Homo sapiens) (UniProt P33261)	inactive
CN1[C@@H](C[C@@H](O)c2ccccc2)CCC[C@@H]1C[C@H](O)c1ccccc1	Cytochrome P450 2C19 (Homo sapiens) (UniProt P33261)	inactive
C[C@@H]1O[C@H](C[N+](C)(C)C)CS1	Cytochrome P450 2C19 (Homo sapiens) (UniProt P33261)	inactive
CC(C)=C[C@H]1[C@@H](C(=O)OCc2cc3c(cc2Cl)OCO3)C1(C)C	Cytochrome P450 2C19 (Homo sapiens) (UniProt P33261)	active
O=C(OC1CCN(CCCl)CC1)C(c1ccccc1)c1ccccc1	Cytochrome P450 2C19 (Homo sapiens) (UniProt P33261)	inactive
